In this section, each of the binders is paired with its reported kon.
Target: T1, His-tagged human LILRB2 polypeptide (human, UniProt Q8N423 22-460)
T1 construct: SPR analyte; also called His-tagged human LILBR2 polypeptide; not shown: His tag
T1 sequence (Q8N423 22-460 limits assumed): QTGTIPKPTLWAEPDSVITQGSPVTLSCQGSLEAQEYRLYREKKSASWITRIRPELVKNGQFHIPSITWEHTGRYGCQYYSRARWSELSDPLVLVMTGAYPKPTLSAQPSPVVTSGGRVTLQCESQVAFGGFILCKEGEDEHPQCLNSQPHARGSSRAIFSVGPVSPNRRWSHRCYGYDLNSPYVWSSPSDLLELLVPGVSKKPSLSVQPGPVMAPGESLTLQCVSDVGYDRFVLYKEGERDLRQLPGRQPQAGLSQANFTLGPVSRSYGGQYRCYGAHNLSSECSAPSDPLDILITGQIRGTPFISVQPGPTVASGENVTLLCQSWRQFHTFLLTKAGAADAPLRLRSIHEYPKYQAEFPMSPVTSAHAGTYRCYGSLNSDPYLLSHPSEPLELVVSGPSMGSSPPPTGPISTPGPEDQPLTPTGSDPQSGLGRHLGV
Assay: SPR, antibody on CM5 chip, His-LILRB2 analyte, 1:1 model
Give me the value, and tack the unit on after it.

[[record]]
binder = "Antibody 11B12 (antibody, V domains shown, Mouse hybridoma mAb purified from ascites) VH: DVQLQESGPGLVKPSQSLSLTCSVTGYSITSGYYWNWIRQFPGNKLEWMGYISYDGNNNYNPSLKNRISITRDTSKNQFFLKLNSVTTEDTATYYCAREESTMITTAWFAYWGQGTLVTVSA VL: DIQMTQSPASLSVSVGETVTITCRASENIYSNLAWYQQKQGKSPQLLVYGATNLADGVPSRFSGSGSGTQYSLKINSLQSEDFGSYFCQHFWDTPYTFGGGTKLEIK"
result = "905000 M⁻¹ s⁻¹"

[[record]]
binder = "Antibody 10D7 (antibody, V domains shown, Mouse hybridoma mAb purified from ascites) VH: EVKLVESGGGLVKPGGSLKLSCAASGFTFSSYGMSWVRQTPEKRLEWVATISGAFSYTYYPDSVKGRFTISRDNAKNNLYLQMSSLRSEDTAFYYCARHDNSLYYAMDYWGQGTSVTVSS VL: NVQITQSPSYLAASPGETITINCRTSKSITKYLAWYQEQPGKTNKLLIYSGSTLQSGIPSRFSGSGSGTDFTLTISSLEPEDFAMYYCQQHNEYPWTFGGGTKLEIK"
result = "338000 M⁻¹ s⁻¹"

[[record]]
binder = "Antibody 12D8 (antibody, V domains shown, Mouse hybridoma mAb purified from ascites) VH: QVQLRQSGPGLVQPSQSLSITCTVSGFSLTSYGVHWVRQSPGKGLEWLGVIWSGGITDYNAAFISRLSISKDNSKSQVFFRMNSLQTNDTAIYYCAREIYGNPDYWGQGTTLTVSS VL: DIVMTQSHKFMSTSVGDRVSITCKASQDVSIAVAWFQQKPGQSPKLLIYSASYRYTGVPDRFSGSGSGTDFTFTISSVQAEDLAVYYCQQHYSTPRTFGGGTKLEIK"
result = "618000 M⁻¹ s⁻¹"

[[record]]
binder = "Antibody 7G4 (antibody, V domains shown, Mouse hybridoma mAb purified from ascites) VH: QVQLKQSGPGLVQPSQSLSITCTVSGFSLATYGVHWVRQSPGKGLEWLGVMWRDGSTDYNAVFMSRLSITKDDSKSQVFFKMNSLQADDTAIYYCAKNPYLYGSSHYYAMDYWGQGTSVTVSS VL: DIVMTQSPSSLSVSAGEKVTMSCKSSQSLLNSENQKNYLAWYQQKPGQPPKLLIYGASTRESGVPDRFTGSGSGTDFTLTISSVQAEDLAVYYCQNDHIYPFTFGSGTKLEIK"
result = "432000 M⁻¹ s⁻¹"

[[record]]
binder = "Antibody 9B6 (antibody, V domains shown, Mouse hybridoma mAb purified from ascites) VH: DVQLVESGGGLVQPGWSRILSCAASGFTFSNFGMHWVRQAPEKGLEWVAYISSGSGTIYYSDTVRGRFTISRDNPKNTLFLLMTSLRSEDTAMYYCTRSDYDGDWFFDVWGAGTTVTVSS VL: DIVMTQSHRFLSTSVGDRVTITCKASQDVTTAVAWCQQKPGQSPKLLIYSASFRYTGVPDRFTGSGSGTDFTFTINNVQAEDLALYYCQQHFTTPLTFGAGTKLELK"
result = "809000 M⁻¹ s⁻¹"

[[record]]
binder = "Antibody 9H6 (antibody, V domains shown, Mouse hybridoma mAb purified from ascites) VH: EVQLQQSGAELVRPGALVKLSCKASGFNVKDYYMHWVKQRPEQGLEWIGWIDPKNGNGIYDPKFQGKASITADTSSNTAYLQLSSLTSEDTSVYYCARGDYFGSSYLFAYWGQGTLVTVSA VL: DIVMTQSHKFMSTSVGDRVSITCKASQDVSTAVAWYQQKPGQSPKLLIYSASYRYTGVPDRFTGSGSGTDFTFTISSVQAEDLAVYYCQQHYSTPWTFGGGAKLEIK"
result = "183000 M⁻¹ s⁻¹"


Qu. Dear colleague, I am looking for the recorded kon of the following binder: Antibody 7C12 (antibody, V domains shown, Mouse hybridoma mAb purified from ascites) VH: EVQLQQSGPDLVKPGASVKISCKASGYIFTDFNMHWVKQSHGKSLEWIGYIYPFNGGTGYNQKFENMATLTVDISSSTAYMEVRSLTSEDSAVYYCARRGGRGHFDYWGQGTTLTVSS VL: DIQMTQSPASLSASVGETVTVTCRASGNIHNYLAWYQQKQGKSPQLLVYNAKTLADGVPSRFSGSGSGIQFSLKINSLQPEDFGSYYCQHFWNTPFTFGSGTKLEIK
Ans. 263000 M⁻¹ s⁻¹
